tested on: NCI-H460 lung; assay: NCI tumour cell line growth inhibition, 48 h
OBSERVED_PROPERTY: TGI (µM)
Respond with the bare value in µM.

Worked examples, 5 molecules total:
MOLECULE	ASSAYED_TARGET	TGI, µM
COc1ccc(/C=C/C(=O)c2cc(OC)cc(OC)c2)cc1	NCI-H460 lung	14.4
C/C=C1/CC(C(=O)OC)N(C(=O)OCc2ccccc2)C1=S (stereo not given)	NCI-H460 lung	38.8
CC(=O)/C(=C\c1ccc(Cl)cc1)c1ccccc1	NCI-H460 lung	13.5
CN1CCN(Cn2nc(COc3ccccc3Cl)n(/N=C/c3ccc(-c4ccc(Cl)cc4Cl)o3)c2=S)CC1	NCI-H460 lung	51.6
CC(C)=CCC[C@@H](C)[C@H]1CC[C@@]2(C)[C@@H]3CC[C@H]4C(C)(C)[C@@H](O)CC[C@@]45C[C@@]35CC[C@]12C	NCI-H460 lung	39.8

molecule CC(C)(C)N(Cc1ccccc1)C(=O)/C=C\S(=O)c1ccccc1 (stereo not given) , TGI observed: 16

TGI reading for CN(C)CC1CC/C(=C\c2ccc(Cl)c(Cl)c2)C1=O (stereo not given) : 36.1

So, O=C1C=C(Nc2ccccc2)c2ccccc2C1=O ? Its TGI was 6.47

---

tested on: A498 renal; assay: NCI tumour cell line growth inhibition, 48 h
TGI values by entry

COMPOUND	OBSERVED_PROPERTY	RESULT
CC(C)=CCC/C(C)=C/CC/C(C)=C/CSC[C@H](NC(=O)CCCCCN1CCN(C)CC1)C(=O)NC1CCCCCC1	TGI	16.7 µM
CSC(=S)CC(O)[C@@H]1CC2c3ccccc3C1c1ccccc12 (stereo not given in full)	TGI	37.3 µM
O=C(O)c1cc(CCc2ccc(O)c(O)c2)ccc1O	TGI	> 100 µM
COCCN(C(=O)c1ccccc1)C1CCC2(SCCS2)c2[nH]c3ccccc3c21 (stereo not given)	TGI	> 100 µM
COC(=O)NC(=O)NC(Cc1ccccc1)NC(=O)OCc1ccccc1 (stereo not given)	TGI	91.5 µM
CC(=O)C1(O)CC2(c3ccccc3)C(=O)C1(c1ccccc1)C(c1ccccc1)=C2c1ccccc1 (stereo not given)	TGI	> 100 µM
C#CCN(Cc1ccc2nc(-c3ccccc3)c(Cl)nc2c1)c1ccc(F)cc1	TGI	> 100 µM
CC(=O)OC(C)(C)C1CC[C@]2(C)/C=C/C(C)C[C@@H](O)/C=C(\C)CC(O)C12 (stereo not given in full)	TGI	> 100 µM

Lookup result for COC(=O)N[C@H]1CCc2cc(OC)c(OC)c(OC)c2-c2ccc(SC)c(=O)cc21 ; measured TGI: < 0.0255 µM

---

test system: XF 498 CNS; assay: NCI tumour cell line growth inhibition, 48 h
OBSERVED_PROPERTY: TGI

MOLECULE	TGI
CN(C)CC1CC/C(=C\c2ccc(Cl)c(Cl)c2)C1=O (centres undefined)	> 65.4 µM

Known value: XF 498 CNS TGI of the molecule NCCCCCC(CCN)SCC1OC(n2cnc3c(N)ncnc32)C(O)C1O (centres undefined) equals > 15 µM

Noted TGI for COc1cccc2c1C(=O)c1c(O)c3c(c(O)c1C2=O)C[C@@](O)(C(=O)CO)CC3OC1CC(N(C)CCOCC(OC(C)=O)OC(C)=O)C(O)C(C)O1 (some centres undefined) , tested on XF 498 CNS: > 0.01 µM

Reported XF 498 CNS TGI for item Cc1cc(N(CCC#N)CCC#N)ccc1/C=C(\NC(=O)/C=C/c1ccccc1)C(=O)N=[N+]=[N-] was 69.9 µM
